# System: DLD-1 Colon cancer cells
# PROTOCOL: in vitro cytotoxicity anti tumor activity
# Type: cell-based
# DETAILS: Homo sapiens, DLD-1, 1 h; One Hour Pulse Treatment; read-out: IC50
REPORTED_METRIC: IC50 (µM)
Numbers only, in µM.

## Task State its IC50: C[C@H](Cc1ccc(O)c(O)c1)[C@@H](C)Cc1ccc(O)c(O)c1 [Masoprocol]
## Result 124

====

# System: Lung (NCI-H23) cancer cells
# PROTOCOL: in vitro cytotoxicity anti tumor activity
# Type: cell-based
# DETAILS: Homo sapiens, NCI-H23; Continuous Drug Exposure, observation at 70 hours; read-out: IC50
REPORTED_METRIC: IC50 (nM)
One number for each entry, in nM.

## Task State its IC50: C[C@H](Cc1ccc(O)c(O)c1)[C@@H](C)Cc1ccc(O)c(O)c1
## Result 80
